System: Sporosarcina pasteurii
Test: Time-dependent Sporosarcina pasteurii CCM 2056 urease assessed as reduction in ammonia production using urea as substrate by phenol-hypochlorite method
Activity calls are given as the source filed them. The calls are words filed in the database; no cut-off is given here.
result_type: TDI

>>> test_result("CC#CC(=O)O")
"Active"
>>> test_result("C#CC(=O)OC")
"Active"
>>> test_result("O=C(O)/C=C/C1=CC(=O)CCC1")
"Active"

---

Test: Inhibition of Sporosarcina pasteurii CCM 2056 urease assessed as reduction in ammonia production by measuring steady state enzyme-inhibitor complex using urea as substrate measured for 120 mins by phenol-hypochlorite method
Conditions: read-out: Ki
Where a name gives a salt, the structure may show the parent alone.
result_type: Ki (µM)

>>> test_result("O=C(O)/C=C/c1ccccc1 [CINNAMIC ACID]")
23
>>> test_result("O=C(O)/C=C/c1ccc([N+](=O)[O-])cc1")
15.7
>>> test_result("CCCCOC(=O)/C=C/C(=O)OCCCC")
66.7
>>> test_result("O=C(O)/C=C/C1=CC(=O)CCC1")
19.5
>>> test_result("CCC(C)OC(=O)/C=C/C(=O)OC(C)CC (stereo unspecified)")
59.2

P. C#CC(=O)OC
Q. CC(=O)/C=C/C1=CC(=O)CCC1
Among P and Q , whose measured Ki is the smaller figure? Could you answer with the label of the item you picked?
Q

A. Cc1ccc(C(=O)/C=C/C(=O)O)cc1
B. O=C(O)C#Cc1ccccc1
C. CCOC(=O)/C=C/C(=O)O [ETHYL FUMARATE]
D. O=C1C=C(/C=C/C(=O)c2ccccc2)CCC1
Hey, can you sort those molecules up there by Ki, smallest first? Record the ranking as a list of labels in the requested order.
D, A, B, C
(D: 0.493 µM, A: 6.64 µM, B: 40.3 µM, C: 59.1 µM)

I. CCOC(=O)C#Cc1ccccc1
II. CCOC(=O)C#CC(=O)OCC
Of I and II , which one carries the higher reported Ki? Could you answer with the label of the item you picked?
I

I. CCOC(=O)/C=C/C(=O)OCC
II. COC(=O)/C=C/C1=CC(=O)CCC1
Among I and II , whose measured Ki is the smaller figure? Could you answer with the label of the item you picked?
II

---

Experiment: Inhibition of Sporosarcina pasteurii CCM 2056 urease assessed as reduction in ammonia production using urea as substrate measured for 120 mins by phenol-hypochlorite method
Conditions: read-out: Ki
pKi: −log10 of the molar value.
result_type: pKi

>>> test_result("COC(=O)/C=C/C1=CC(=O)CCC1")
6.16

P. CCOC(=O)/C=C/C(=O)OC(C)(C)C
Q. COC(=O)/C=C/C1=CC(=O)CC1
Among P and Q , whose measured pKi is the smaller figure? Could you answer with the label of the item you picked?
P

1. C=C=CC(=O)OCC
2. CCOC(=O)C#CC(=O)OCC
Of 1 and 2 , which one carries the higher reported pKi? Could you answer with the label of the item you picked?
2

1. O=C(O)/C=C/c1ccc([N+](=O)[O-])cc1
2. O=C1C=C(/C=C/C(=O)c2ccccc2)CCC1
3. CCCCOC(=O)/C=C/C(=O)OCCCC
4. CC(=O)/C=C/C1=CC(=O)CCC1
Hey, can you sort those compounds up there by pKi, smallest first? Record the ranking as a list of labels in the requested order.
3, 4, 1, 2

---

Assay: Inhibition of Sporosarcina pasteurii CCM 2056 urease assessed as reduction in ammonia production using urea as substrate measured for 120 mins by phenol-hypochlorite method
Details: read-out: Ki
result_type: Ki (µM)

Below, each entry is followed by its recorded Ki result.
>>> test_result("Cc1ccc(/C=C/C(=O)O)cc1")
34.2
>>> test_result("O=C1C=CCC1")
0.291

A. CC(=O)NO [ACETOHYDROXAMIC ACID]
B. COC(=O)/C=C(\CC(=O)OC)C(=O)OC
Of A and B , which one carries the higher reported Ki? Could you answer with the label of the item you picked?
B
(B: 5.21 µM, A: 3.3 µM)

---

System: BALB/3T3
Experiment: Cytotoxicity against mouse BALB/3T3 cells assessed as reduction in cell proliferation after 72 hrs by SRB assay
Assay type: cell-based
Details: balb/3t3, 72 h
Where a name gives a salt, the structure may show the parent alone.
List of LC50 values.
// return numeric value only (unit: µM, not printed)

>>> test_result("COC(=O)C#CC(=O)OC")
29.8
>>> test_result("COC(=O)/C=C/C(=O)OC [DIMETHYL FUMARATE]")
39.7
>>> test_result("O=C1C=CCC1")
86.5

Now consider the entry below.
# molecule CCOC(=O)/C=C/C(=O)c1ccccc1 ; its LC50 = 24.5

---

Assay: Inhibition of Sporosarcina pasteurii CCM 2056 urease assessed as reduction in ammonia production by measuring steady state enzyme-inhibitor complex using urea as substrate measured for 120 mins by phenol-hypochlorite method
Settings: read-out: Ki
pKi: −log10 of the molar value.
result_type: pKi

Below, each entry is followed by its recorded pKi result.
>>> test_result("N#C/C=C/C1=CC(=O)CCC1")
6.03
>>> test_result("CC(C)OC(=O)/C=C/C(=O)OC(C)C")
4.41
>>> test_result("COC(=O)/C=C/C1=CC(=O)CC1")
6.50

a. CCOC(=O)/C=C/C(=O)C(=O)OCC
b. C=C=CC(=O)OCC
Of a and b , which one carries the higher reported pKi? Could you answer with the label of the item you picked?
a
(a: 6.95, b: 5.64)

I. O=C1C=CCCC1
II. Cc1ccc(/C=C/C(=O)O)cc1
Of I and II , which one carries the higher reported pKi? Could you answer with the label of the item you picked?
I
(I: 6.57, II: 4.49)

A. CC#CC(=O)O
B. C#CC(=O)O [PROPIOLIC ACID]
C. CCOC(=O)/C=C/C(=O)OC(C)(C)C
Order the records so the highest pKi appears first and the lowest last. Record the ranking as a list of labels in the requested order.
C, B, A

---

Tested on: Sporosarcina pasteurii
Assay: Competitive inhibition of Sporosarcina pasteurii CCM 2056 urease assessed as reduction in ammonia production preincubated with enzyme followed by addition of varying levels of urea as substrate measured for 120 mins by Lineweaver-Burk plot analysis
Activity calls are given as the source filed them. The calls are words filed in the database; no cut-off is given here.
result_type: mode of inhibition

Below, each entry is followed by its recorded mode of inhibition result.
>>> test_result("O=C(O)/C=C/c1ccc([N+](=O)[O-])cc1")
"Active"
>>> test_result("N#C/C=C/C1=CC(=O)CCC1")
"Active"
>>> test_result("COC(=O)/C=C(\\CC(=O)OC)C(=O)OC")
"Active"
>>> test_result("CCOC(=O)/C=C/C(=O)c1ccccc1")
"Active"
>>> test_result("CCOC(=O)C#CC(=O)OCC")
"Active"

Now consider the entry below.
# compound O=C1C=CCCC1 ; its mode of inhibition = Active

---

Test system: Sporosarcina pasteurii
Test: Reversible inhibition of Sporosarcina pasteurii CCM 2056 urease assessed as reduction in ammonia production by measuring recovery of enzyme activity at 10 times IC50 preincubated for 60 mins followed by 100-fold dilution in to PBS containing urea as substrate by Berthelot colorimetric assay relative to control
Design: scale not given: the % may be the effect or the level left
result_type: Activity (%)

>>> test_result("CC(=O)/C=C/C1=CC(=O)CCC1")
38.8
>>> test_result("O=C(O)/C=C/c1ccccc1")
40.3
>>> test_result("N#C/C=C/C1=CC(=O)CCC1")
27.2
>>> test_result("CCOC(=O)/C=C/C(=O)OCC")
34.3
>>> test_result("CCC(C)OC(=O)/C=C/C(=O)OC(C)CC (stereo not given)")
46

I. Cc1ccc(/C=C/C(=O)O)cc1
II. CCOC(=O)/C=C/C(=O)C(=O)OCC
Among I and II , whose measured Activity is the smaller figure? Could you answer with the label of the item you picked?
II

A. CC#CC(=O)O
B. COC(=O)/C=C(\CC(=O)OC)C(=O)OC
Of A and B , which one carries the higher reported Activity? Could you answer with the label of the item you picked?
A
(A: 47.4%, B: 31.5%)

---

Tested on: Sporosarcina pasteurii
Experiment: Competitive inhibition of Sporosarcina pasteurii CCM 2056 urease assessed as reduction in ammonia production preincubated with enzyme followed by addition of varying levels of urea as substrate measured for 120 mins by Lineweaver-Burk plot analysis
Structures can show the parent of a compound that is named as a salt. Calls of active or inactive are those of the source. The calls are words filed in the database; no cut-off is given here.
result_type: mode of inhibition

Below, each entry is followed by its recorded mode of inhibition result.
>>> test_result("COC(=O)/C=C/C1=CC(=O)CCC1")
"Active"
>>> test_result("CC(=O)/C=C/C1=CC(=O)CCC1")
"Active"
>>> test_result("O=C(O)/C=C/C1=CC(=O)CCC1")
"Active"
>>> test_result("COC(=O)/C=C/C1=CC(=O)CC1")
"Active"
>>> test_result("O=C(O)/C=C/c1ccccc1 [CINNAMIC ACID]")
"Active"

# molecule O=C(O)/C=C(\CC(=O)O)C(=O)O [ACONITIC ACID] ; its mode of inhibition = Active

# molecule CC#CC(=O)OCC ; its mode of inhibition = Active

# molecule CCOC(=O)/C=C/C(=O)OC(C)(C)C ; its mode of inhibition = Active

# molecule COC(=O)/C=C/C(=O)OC [DIMETHYL FUMARATE] ; its mode of inhibition = Active

# molecule O=C1C=C(/C=C/C(=O)c2ccccc2)CCC1 ; its mode of inhibition = Active

# molecule O=C1C=CCC1 ; its mode of inhibition = Active

# molecule COC(=O)C#CC(=O)OC ; its mode of inhibition = Active

# molecule CCOC(=O)/C=C/C(=O)C(=O)OCC ; its mode of inhibition = Active

# molecule Cc1ccc(C(=O)/C=C/C(=O)O)cc1 ; its mode of inhibition = Active

# molecule C=C=CC(=O)OCC ; its mode of inhibition = Active
